// data source = PubChem BioAssay AID623951

target.of.assay: PvdQ acyl-homoserine lactone acylase (Pseudomonas aeruginosa LESB58)
test.method.notes: PvdQ acylase enzyme activity blockers – biochemical, fluorescence, plate reader, dry powder samples, dose response (AID 623951)
experimental.parameters: purified PvdQ, 4-MU laurate hydrolysis
value.kind: AC50

Specify measured AC50 for N#CC(c1cccc(Cl)n1)c1ccccc1OC(F)(F)F (stereo not drawn) . 936 nM

Given N#CC(c1ccc(C(F)(F)F)c(Cl)n1)c1ccccc1OC(F)(F)F (stereo not drawn) , respond with its AC50. 433 nM

Give the value of AC50 reported for the following: Cc1ccc(C(C#N)c2ccc(Cl)cc2)nc1C#N (stereo not drawn) 221 nM

Provide AC50 value for the following compound: N#CC(CC1CC1)c1ccc(Cl)cc1 (stereo not drawn) 258 nM

Item N#Cc1cccc(C(C#N)c2ccccc2OC(F)(F)F)n1 (stereo not drawn) : provide AC50 1340 nM

Supply reported AC50 belonging to this compound: Cc1ccc(C(C#N)c2ccc(Cl)cc2)nc1 (stereo not drawn) 271 nM

Tell me AC50 reported for N#CC(c1ccc(C(F)(F)F)c(Cl)n1)c1ccc(Cl)cc1F (stereo not drawn) 802 nM

Report AC50 for N#CC(c1ccc(Cl)cc1)c1ncccc1Cl (stereo not drawn) 5.76 nM

Fill in reported AC50 for this entry: N#CC(c1ccc(Cl)cc1)c1ccc(C(F)(F)F)cn1 (stereo not drawn) 546 nM

// fetch AC50 given entry N#CC(c1cccc(C(F)(F)F)n1)c1ccc(Cl)cc1F (stereo not drawn) < 3 nM

Further cases:
Answer with the recorded AC50 of Cc1cccc(C(C#N)c2ccc(Cl)cc2)n1 (stereo not drawn) only. 138 nM

Supply measured AC50 of N#CC(c1cccc(Cl)n1)c1ccc(Cl)cc1F (stereo not drawn) in your reply. 77 nM

Identify AC50 associated with the compound N#Cc1cccc(C(C#N)c2ccc(Cl)cc2F)n1 (stereo not drawn) 140 nM
